FYI, the data here is from patent US20200087400A1.

tested target: T1, Bio-P19 member A2E-16 (chain 2: C-terminal BirA substrate peptide (BSP), enzymatically biotinylated; its letters are not printed in the patent and it is left out)
T1 construct: also called biotinylated control peptide A2E-16/HLA-A*02:01 monomer
T1 sequence (b2m, as listed by the source): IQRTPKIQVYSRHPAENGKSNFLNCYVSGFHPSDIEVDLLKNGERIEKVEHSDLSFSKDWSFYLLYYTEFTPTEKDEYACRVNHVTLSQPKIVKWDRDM
procedure summary: phage ELISA, streptavidin plate, anti-M13-HRP
Method: Individual phage clones from enriched phage display panning pools against PSA146/HLA-A*02:01 complex were incubated in the coated plates. Binding of the phage clones was detected by HRP-conjugated anti-M13 antibodies and developed using HRP substrate. The absorbance was read at 450 nm. […] Then, unique antibody clones were identified through DNA sequencing of ELISA-positive clones. […]
measurement kind: binding result

PSA146/HLA-A*02:01-specific scFv phage clone #18 (scFv, V domains shown) VH: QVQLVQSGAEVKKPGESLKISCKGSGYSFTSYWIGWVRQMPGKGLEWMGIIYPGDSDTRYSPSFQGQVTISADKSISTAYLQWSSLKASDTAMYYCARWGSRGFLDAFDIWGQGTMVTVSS VL: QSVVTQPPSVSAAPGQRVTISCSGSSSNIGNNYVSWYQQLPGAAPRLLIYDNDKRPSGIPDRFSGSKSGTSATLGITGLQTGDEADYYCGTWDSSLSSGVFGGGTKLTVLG : no binding
PSA146/HLA-A*02:01-specific scFv phage clone #15 (scFv, V domains shown) VH: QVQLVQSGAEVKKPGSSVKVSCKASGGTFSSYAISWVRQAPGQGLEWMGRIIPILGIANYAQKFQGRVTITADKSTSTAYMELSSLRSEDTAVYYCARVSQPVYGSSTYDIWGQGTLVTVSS VL: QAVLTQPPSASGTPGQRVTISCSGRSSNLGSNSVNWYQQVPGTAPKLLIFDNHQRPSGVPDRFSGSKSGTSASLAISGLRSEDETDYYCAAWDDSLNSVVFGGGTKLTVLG : no binding
PSA146/HLA-A*02:01-specific scFv phage clone #6 (scFv, V domains shown) VH: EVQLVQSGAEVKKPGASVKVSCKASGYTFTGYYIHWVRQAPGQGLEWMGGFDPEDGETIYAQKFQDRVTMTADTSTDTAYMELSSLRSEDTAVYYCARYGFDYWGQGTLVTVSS VL: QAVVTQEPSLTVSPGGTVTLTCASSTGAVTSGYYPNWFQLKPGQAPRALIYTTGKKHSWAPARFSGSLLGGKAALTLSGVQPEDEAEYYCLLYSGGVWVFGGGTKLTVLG : no binding
